# assay-comment: Inhibitory concentration against Protein farnesyltransferase of Trypanosoma cruzi
measurement-type: IC50

-- ask Requested read-out: IC50. Entry: `Cn1cncc1[C@@](N)(c1ccc(Cl)cc1)c1ccc2c(c1)c(-c1cccc(Cl)c1)cc(=O)n2C`
-- reply ~0.075 µM
